assay: Antiproliferative activity against HUVEC cells; type: cell-based; conditions: human
measured_endpoint: GI50 (µM)
Supply the numeric figure in µM, leaving out any unit text.

Illustrative cases are given below, each with its answer.
molecule: O=c1c(-c2cc(O)cc(O)c2)coc2cc(O)cc(O)c12
measured_endpoint: GI50
units_of_measure: µM
reported_result: 133

molecule: O=c1c(C2=CCCC(O)C2O)coc2cc(O)cc(O)c12 (stereo not given)
measured_endpoint: GI50
units_of_measure: µM
reported_result: 17

Now for another entry.
# input Provide one value: measured GI50 of COc1c(O)ccc(-c2coc3cc(O)cc(O)c3c2=O)c1O
# output 64

###

Below, each entry is listed with its recorded CC50.
tested on: HeLa; assay: Cytotoxicity against human HeLa cells; assay type: functional

Illustrative cases are given below, each with its answer.
compound: O=c1c(C2=CCCC(O)C2O)coc2cc(O)cc(O)c12 (stereo not given)
tested_system: HeLa
measured_endpoint: CC50
reported_result: 81 µM
--
compound: O=c1c(-c2cc(O)cc(O)c2)coc2cc(O)ccc12
tested_system: HeLa
measured_endpoint: CC50
reported_result: 160 µM
--
compound: O=c1c([C@]2(O)CC[C@@H](O)[C@H](O)C2)coc2cc(O)cc(O)c12
tested_system: HeLa
measured_endpoint: CC50
reported_result: > 162 µM
--
compound: COc1c(O)ccc(-c2coc3cc(O)cc(O)c3c2=O)c1O
tested_system: HeLa
measured_endpoint: CC50
reported_result: 77 µM

Now for another entry.
# input Provide one value: measured CC50 of O=c1c(-c2cc(O)cc(O)c2)coc2cc(O)cc(O)c12
# output 134 µM

###

system: K562; assay: Antiproliferative activity against human K562 cells; type: functional
measured_endpoint: GI50 (µM)
Supply the numeric figure in µM, leaving out any unit text.

smiles: COc1c(O)ccc(-c2coc3cc(O)cc(O)c3c2=O)c1O
units_of_measure: µM
GI50: 48

Now for another entry.
# input Provide one value: measured GI50 of O=c1c(-c2cc(O)cc(O)c2)coc2cc(O)cc(O)c12
# output 75

###

Below, each entry is listed with its recorded GI50.
assay: Antiproliferative activity against estrogen receptor negative human MDA-MB-436 cells

compound: O=c1c(-c2ccc(O)cc2)coc2cc(O)ccc12
measured_endpoint: GI50
reported_result: > 196 µM
--
compound: O=c1c2c(O)cc(O)cc2occ1[C@]1(O)CC[C@@H](O)CC1
measured_endpoint: GI50
reported_result: 147 µM
--
compound: O=c1c(-c2ccc(O)cc2)coc2cc(O)cc(O)c12
measured_endpoint: GI50
reported_result: 17 µM
--
compound: O=c1c(C2=CCCC(O)C2O)coc2cc(O)cc(O)c12 (stereo not given)
measured_endpoint: GI50
reported_result: 17 µM
--
compound: COc1cc(-c2coc3cc(O)ccc3c2=O)ccc1O
measured_endpoint: GI50
reported_result: 75 µM

Now for another entry.
# input Provide one value: measured GI50 of O=c1c(-c2cc(O)cc(O)c2)coc2cc(O)ccc12
# output 169 µM

###

Below, each entry is listed with its recorded GI50.
test system: K562; assay: Antiproliferative activity against human K562 cells; type: functional

Illustrative cases are given below, each with its answer.
compound: O=c1c(-c2cc(O)cc(O)c2)coc2cc(O)ccc12
GI50: > 185 µM
--
compound: O=c1c(C2=CCCC(O)C2O)coc2cc(O)cc(O)c12 (stereo not drawn)
GI50: > 172 µM

Now for another entry.
# input Provide one value: measured GI50 of O=c1c([C@]2(O)CC[C@@H](O)[C@H](O)C2)coc2cc(O)cc(O)c12
# output > 162 µM

The measurements presented in this section are drawn from ChEMBL document CHEMBL1154347.
